- Tested on: KM12 colon
- method summary: NCI tumour cell line growth inhibition, 48 h; in the data active = GI50 below about 0.43 µM; inactive = the rest
Labels: active, inactive

| compound | qualitative label |
| --- | --- |
| CCN(CC)c1nc(-c2ccc(Cl)cc2Cl)nc2ccccc12 | inactive |
| COc1ccc2[nH]cc(-c3nc(-c4c[nH]c5ncccc45)cs3)c2c1 | inactive |
| O=c1[nH]c(=O)n(C2CC(O)C(CO)O2)cc1CO (configuration not stated) | inactive |
| CCN(CC)CCOc1ccc(/C=C2\CC3C4CC=C5C[C@@H](O)CC[C@]5(C)C4CC[C@]3(C)C2=O)cc1OC (some centres not stated) | inactive |
| Cc1cn2c(/C=C3\C(=O)Nc4ccc(O)cc43)c(-c3ccc(Cl)cc3)nc2s1 | inactive |
| COc1cccc(/C=N/[N-]C(=O)c2ccncc2)c1[O-].[Cu+2].[OH3+] | inactive |
| CC12CCC3C(CCC4=CC(O)CCC43C=O)C1(O)CCC2c1ccc(=O)oc1 (configuration not stated) | active |

----------
- Test system: IGROV1 ovarian
- method summary: NCI tumour cell line growth inhibition, 48 h
The reader will find reported TGI values listed item by item below.
readout label: TGI

| molecule | assay result |
| --- | --- |
| COc1ccccc1N1CCN(CCCn2c(=O)c3c(OC)nc(C)cc3c(=O)n2-c2ccccc2)CC1 | > 100 µM |
| COc1cccc2c1C(=O)c1c(O)c3c(c(O)c1C2=O)C[C@@](O)(C(=O)CO)C[C@@H]3OC1CC(N)C(OC)C(C)O1 (stereo not given in full) | 16.4 µM |
| CC12CC(C#N)(C#N)C(C#N)(CO1)C(=N)O2 (stereo not given) | > 100 µM |
| C=CCCCCCCCCCCC1(O)C=CC2=[N+](CCCCCN=C(N)N)CCCN21 (stereo not given) | 30.1 µM |
| CCCC(O)C(NC(=O)CCl)C(=O)O (stereo not given) | > 100 µM |
| CN1CCN(CN2C(=O)C3C4C=CC(C3C2=O)C2C(=O)N(CN3CCN(C)CC3)C(=O)C42)CC1 (stereo not given) | > 100 µM |
| Cc1ccc(NC(=O)C2C(=O)N(c3ccc(C)c(C)c3)C(=O)C2N=N)cc1C (stereo not given) | > 100 µM |
| CC(=C\c1ccccc1)/C=C(\C#N)C(N)=O | > 10 µM |
| CCOC(=O)c1csc(NC(=O)CN2CCN(C)CC2)n1 | > 100 µM |
| CCOC(=O)c1cc(C2(O)CCN(CC(C)CC)C2=O)c(-c2cc(C)no2)[nH]1 (stereo not given) | > 100 µM |

----------
Consider the following GI50 values measured on NCI-H460 lung.
readout label: GI50

| compound | experimental target | readout label | assay result |
| --- | --- | --- | --- |
| Nc1nccc2c1ccn2-c1ccc(NC(=O)c2ccc(N3CCOCC3)c(C(F)(F)F)c2)cc1 | NCI-H460 lung | GI50 | 352 nM |
| Cn1cc(C2=C(c3cn(C)c4cc(C(N)=O)ccc34)C(=O)NC2=O)c2ccccc21 | NCI-H460 lung | GI50 | 854 nM |
| CC(C)=CCc1cc(O)cc2c1OC(C=C(C)C)C1=C2C(=O)C2=C(NCCS2(=O)=O)C1=O (centres undefined) | NCI-H460 lung | GI50 | 1200 nM |
| O=c1cc2oc3cc(O)c(O)cc3c(-c3ccccc3O)c-2cc1O | NCI-H460 lung | GI50 | 21500 nM |
| COc1ccncc1C#Cc1cncc(C(=O)Nc2ccc(CN3CCN(C)CC3)c(C(F)(F)F)c2)c1 | NCI-H460 lung | GI50 | 16100 nM |
| Cc1csc(Nc2nc(-c3cccc(Br)c3)nc(C(Cl)(Cl)Cl)n2)n1 | NCI-H460 lung | GI50 | 1160 nM |
| CCCn1c(N)c(C(=O)N/N=C(/C)c2cc3cccc(OC)c3o2)sc1=S | NCI-H460 lung | GI50 | 17700 nM |
| Ic1ccc(-n2nnnc2-c2cnoc2-c2ccccc2)cc1 | NCI-H460 lung | GI50 | 35000 nM |
| CC1(C)OCCn2c1nc1c(N3CCOCC3)nc(-c3cnc(N)nc3)nc12 | NCI-H460 lung | GI50 | 187 nM |
| C=CCCCCCCCCCCC1(O)C=CC2=[N+](CCCCCN=C(N)N)CCCN21 (centres undefined) | NCI-H460 lung | GI50 | 4380 nM |
| COc1cccc2c1C(=O)c1c(O)c3c(c(O)c1C2=O)CC(O)(/C(C)=N/NC(=O)CCC(=O)N/N=C(\C)C1(O)Cc2c(O)c4c(c(O)c2C(OC2CC(N)C(O)C(C)O2)C1)C(=O)c1c(OC)cccc1C4=O)CC3OC1CC(N)C(O)C(C)O1 (centres undefined) | NCI-H460 lung | GI50 | 98.1 nM |
| Cc1cn2c(/C=C3\C(=O)Nc4ccc(O)cc43)c(-c3ccc(Cl)cc3)nc2s1 | NCI-H460 lung | GI50 | 15500 nM |
| COc1ccc(-c2oc(=O)ccc2-c2cc(OC)c(OC)c(OC)c2)cc1F | NCI-H460 lung | GI50 | 5430 nM |
| COc1cc(CNCCCN2C(=O)c3ccc4c5c(ccc(c35)C2=O)C(=O)N(CCCNCc2cc(OC)c(OC)c(OC)c2)C4=O)cc(OC)c1OC | NCI-H460 lung | GI50 | 316 nM |
